Tested on: human red blood cells (hRBC's)
test-name: Hemolysis assay
Format: cell-based
Could you please report measured Hemolysis H10 for the items listed next?
Give bare numbers, in µg/mL.

Below, each entry is followed by its recorded Hemolysis H10 result.
INSERT INTO results (chemical_smiles, unit_abbrev, data_value) VALUES
  ('CC(C)CCC(=O)N1CC(=O)N[C@@H](CCCCN)CN(C(=O)CCc2ccccc2)CC(=O)N[C@@H](Cc2ccccc2)CN(CC(N)=O)C(=O)CCC(=O)N[C@@H](CCCCN)CN(C(=O)CCc2ccccc2)CC(=O)N[C@@H](Cc2ccccc2)CN(C(=O)CCC(C)C)CC(=O)N[C@@H](CCCCN)CN(C(=O)CCc2ccccc2)CC(=O)N[C@@H](CCCCN)CN(C(=O)CCc2ccccc2)CC(=O)N[C@@H](Cc2ccccc2)C1', 'µg/mL', 150),
  ('CC(C)CCC(=O)N1CC(=O)N[C@@H](Cc2ccccc2)CN(C(=O)CCC(C)C)CC(=O)N[C@@H](CCCCN)CN(C(=O)CCc2ccccc2)CC(=O)N[C@@H](CCCCN)CN(C(=O)CCc2ccccc2)CC(=O)N[C@@H](CCCCN)CN(C(=O)CCc2ccccc2)CC(=O)N[C@@H](CCCCN)CN(C(=O)CCc2ccccc2)CC(=O)N[C@@H](Cc2ccccc2)CN(CC(N)=O)C(=O)CCC(=O)N[C@@H](Cc2ccccc2)C1', 'µg/mL', 40);

Please turn your attention to the following entry.
input: Name the recorded Hemolysis H10 for `CC(C)C[C@@H](CN(CC(=O)N[C@@H](CCCCN)CN(CC(N)=O)C(=O)CCc1ccccc1)C(=O)CCc1ccccc1)NC(=O)CN(C[C@H](CCCCN)NC(=O)CN(C[C@H](CCCCN)NC(=O)CN(C[C@H](CC(C)C)NC(=O)CN(C[C@H](CCCCN)NC(=O)CN(C[C@@H](N)CCCCN)C(=O)CCc1ccccc1)C(=O)CCc1ccccc1)C(=O)CCc1ccccc1)C(=O)CCc1ccccc1)C(=O)CCc1ccccc1` .
output: 75
